Target: T1, human CD47 (analyte in the Biacore assay) (human, UniProt Q08722 19-139, limits assumed)
T1 construct: also called human CD47 protein
Test: SPR (Biacore T200), antibody captured by anti-mouse Fc, human CD47 as analyte
Parameter: kon (M⁻¹ s⁻¹)
Enter your answer as a number in M⁻¹ s⁻¹; do not include the unit.

Some binders with recorded kon:
B6H12 (commercialized CD47 antibody, purchased from Abcam, catalog No. ab3283) (antibody) EVQLVESGGDLVKPGGSLKLSCAASGFTFSGYGMSWVRQTPDKRLEWVATITSGGTYTYYPDSVKGRFTISRDNAKNTLYLQIDSLKSEDTAIYFCARSLAGNAMDYWGQGTSVTVSSGGGGSGGGGSGGGGSDIVMTQSPATLSVTPGDRVSLSCRASQTISDYLHWYQQKSHESPRLLIKFASQSISGIPSRFSGSGSGSDFTLSINSVEPEDVGVYYCQNGHGFPRTFGGGTKLEIK: 132000
059-1.82.1 (antibody, mouse IgG3, V domains shown) VH: EVQLQQSGPELVKPGASVKMSCKASGYTFTNYVMHWVKQKPGQGLEWIGYINPYNDGTNYNEKFKGKATLTSDKSSSTAYMELSSLTSEDSAVYYCAKGGWFSMDYWGQGTSVTVSS VL: DVVMTQTPLSLPVSLGDQASISCRSSQSLVHSNGKTYLQWYLQKPGQSPKLLIYKVSNRFSGVPDRFSGSGSGTDFTLKISRVEAEDLGVYFCSQSTHVYTFGGGTKLEIK: 256000

Could you now look at the following binder, please?
059-1.43.1 (antibody, mouse IgG1, V domains shown, also called 059-1.43.1 purified antibody) VH: QVQLQQSGAELVRPGASVTLSCKASGYTFTDYEMHWVKQTPVHGLEWIGAIDPETGGTAYNQKFKGKATLTADKSSSTAYMELRSLTSEDSAVYYCTRGTPYAMDYWGQGTSVTVSS VL: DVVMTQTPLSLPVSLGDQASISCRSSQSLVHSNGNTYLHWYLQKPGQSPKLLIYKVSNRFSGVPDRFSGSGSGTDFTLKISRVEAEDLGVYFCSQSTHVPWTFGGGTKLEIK has a reported kon of 236000
